Overview of reported solubility (mole fraction) across a group of compounds:
# assay_setup: in ethanol, 328.15 K
Number, no unit, nothing else.

Ask: Field request: solubility (mole fraction) | item: O=C(/C=C/c1cn(-c2ccccc2)nc1-c1ccccc1Cl)c1nc2ccccc2[nH]1
Reply: 0.000217

Ask: Field request: solubility (mole fraction) | item: COc1cccc(-c2nn(-c3ccccc3)cc2/C=C/C(=O)c2nc3ccccc3[nH]2)c1
Reply: 0.000165

Ask: Field request: solubility (mole fraction) | item: O=C(/C=C/c1cn(-c2ccccc2)nc1-c1ccccc1)c1nc2ccccc2[nH]1
Reply: 0.00016

Ask: Field request: solubility (mole fraction) | item: COc1ccc(-c2nn(-c3ccccc3)cc2/C=C/C(=O)c2nc3ccccc3[nH]2)cc1OC
Reply: 0.000111

Ask: Field request: solubility (mole fraction) | item: COc1ccc(-c2nn(-c3ccccc3)cc2/C=C/C(=O)c2nc3ccccc3[nH]2)cc1
Reply: 0.000452

Next:
Ask: Field request: solubility (mole fraction) | item: O=C(/C=C/c1cn(-c2ccccc2)nc1-c1ccc(Cl)cc1)c1nc2ccccc2[nH]1
Reply: 0.000172

Ask: Field request: solubility (mole fraction) | item: O=C(/C=C/c1cn(-c2ccccc2)nc1-c1cccc([N+](=O)[O-])c1)c1nc2ccccc2[nH]1
Reply: 0.000119

* * *

# assay_setup: in n-propanol, 298.15 K
Overview of reported solubility (mole fraction) across a group of molecules:
Number, no unit, nothing else.

Ask: Field request: solubility (mole fraction) | item: O=C(/C=C/c1cn(-c2ccccc2)nc1-c1ccc(Cl)cc1)c1nc2ccccc2[nH]1
Reply: 8.35e-05

Ask: Field request: solubility (mole fraction) | item: O=C(/C=C/c1cn(-c2ccccc2)nc1-c1ccccc1)c1nc2ccccc2[nH]1
Reply: 0.000135

Ask: Field request: solubility (mole fraction) | item: COc1ccc(-c2nn(-c3ccccc3)cc2/C=C/C(=O)c2nc3ccccc3[nH]2)cc1
Reply: 0.00049

Ask: Field request: solubility (mole fraction) | item: COc1ccc(-c2nn(-c3ccccc3)cc2/C=C/C(=O)c2nc3ccccc3[nH]2)cc1OC
Reply: 0.000125

Ask: Field request: solubility (mole fraction) | item: O=C(/C=C/c1cn(-c2ccccc2)nc1-c1cccc([N+](=O)[O-])c1)c1nc2ccccc2[nH]1
Reply: 0.000115

Ask: Field request: solubility (mole fraction) | item: COc1cccc(-c2nn(-c3ccccc3)cc2/C=C/C(=O)c2nc3ccccc3[nH]2)c1
Reply: 0.000126

Ask: Field request: solubility (mole fraction) | item: O=C(/C=C/c1cn(-c2ccccc2)nc1-c1ccccc1Cl)c1nc2ccccc2[nH]1
Reply: 0.000157

* * *

# assay_setup: in n-pentanol, 328.15 K
readout_name: solubility (mole fraction)
Number, no unit, nothing else.

Example entries begin here.
Ask: Field request: solubility (mole fraction) | item: O=C(/C=C/c1cn(-c2ccccc2)nc1-c1ccccc1)c1nc2ccccc2[nH]1
Reply: 0.000639

Ask: Field request: solubility (mole fraction) | item: O=C(/C=C/c1cn(-c2ccccc2)nc1-c1ccccc1Cl)c1nc2ccccc2[nH]1
Reply: 0.00074

Ask: Field request: solubility (mole fraction) | item: COc1cccc(-c2nn(-c3ccccc3)cc2/C=C/C(=O)c2nc3ccccc3[nH]2)c1
Reply: 0.000499

Ask: Field request: solubility (mole fraction) | item: O=C(/C=C/c1cn(-c2ccccc2)nc1-c1ccc(Cl)cc1)c1nc2ccccc2[nH]1
Reply: 0.000442

Ask: Field request: solubility (mole fraction) | item: COc1ccc(-c2nn(-c3ccccc3)cc2/C=C/C(=O)c2nc3ccccc3[nH]2)cc1OC
Reply: 0.00043

Next:
Ask: Field request: solubility (mole fraction) | item: O=C(/C=C/c1cn(-c2ccccc2)nc1-c1cccc([N+](=O)[O-])c1)c1nc2ccccc2[nH]1
Reply: 0.000557

Ask: Field request: solubility (mole fraction) | item: COc1ccc(-c2nn(-c3ccccc3)cc2/C=C/C(=O)c2nc3ccccc3[nH]2)cc1
Reply: 0.00191

Reference for the values: BigSolDB 2.1
